The compounds listed here are annotated with their normalized area under the dose-response curve.
- Test system: SU-DHL6 (cancer type: DLBCL)
- Protocol notes: normalized area under the dose-response curve (viability relative to DMSO control) (fraction); higher = less sensitive (more viable cells)
- Test conditions: exposure time not given
Reported metric: normalized area under the dose-response curve

Compound: O=C(c1ccc(OCCN2CCCCC2)cc1)c1c(-c2ccc(O)cc2)sc2cc(O)ccc12 [Raloxifene]
Observed result: 0.856
//
Compound: Nc1nc(Cl)nc2c1ncn2[C@H]1C[C@H](O)[C@@H](CO)O1 [Cladribine]
Observed result: 0.843
//
Compound: COc1cc(C(=O)O)ccc1NC(=O)[C@@H]1N[C@@H](CC(C)(C)C)[C@](C#N)(c2ccc(Cl)cc2F)[C@H]1c1cccc(Cl)c1F [Idasanutlin]
Observed result: 0.898
//
Compound: CO[C@H]1C[C@@H]2CC[C@@H](C)[C@@](O)(O2)C(=O)C(=O)N2CCCC[C@H]2C(=O)O[C@H]([C@H](C)C[C@@H]2CC[C@@H](OC(=O)C(C)(CO)CO)[C@H](OC)C2)CC(=O)[C@H](C)/C=C(\C)[C@@H](O)[C@@H](OC)C(=O)[C@H](C)C[C@H](C)/C=C/C=C/C=C/1C [Temsirolimus]
Observed result: 0.72
//
Compound: O=P1(N(CCCl)CCCl)NCCCO1 (centres undefined) [Cyclophosphamide]
Observed result: 0.969
//
Compound: CCCS(=O)(=O)Nc1ccc(F)c(C(=O)c2c[nH]c3ncc(-c4ccc(Cl)cc4)cc23)c1F [Vemurafenib]
Observed result: 0.92
//
Compound: CC1(C)CCC(CN2CCN(c3ccc(C(=O)NS(=O)(=O)c4ccc(NCC5CCOCC5)c([N+](=O)[O-])c4)c(Oc4cnc5[nH]ccc5c4)c3)CC2)=C(c2ccc(Cl)cc2)C1 [Venetoclax]
Observed result: 0.0483
//
Compound: Cc1sc2c(c1C)C(c1ccc(Cl)cc1)=N[C@@H](CC(=O)Nc1ccc(O)cc1)c1nnc(C)n1-2 [otx-015]
Observed result: 0.757
//
Compound: CS(=O)(=O)c1ccc(C(=O)Nc2ccc(Cl)c(-c3ccccn3)c2)c(Cl)c1 [Vismodegib]
Observed result: 0.864

---

- Test system: HuT 78 (cancer type: TCL)
- Protocol notes: normalized area under the dose-response curve (viability relative to DMSO control) (fraction); higher = less sensitive (more viable cells)
- Test conditions: exposure time not given
Reported metric: normalized area under the dose-response curve

Compound: C=CC(=O)N1CCC[C@@H](n2nc(-c3ccc(Oc4ccccc4)cc3)c3c(N)ncnc32)C1 [Ibrutinib]
Observed result: 0.928
//
Compound: COc1cc2nccc(Oc3ccc(NC(=O)NC4CC4)c(Cl)c3)c2cc1C(N)=O [Lenvatinib]
Observed result: 0.866
//
Compound: CCc1cnn2c(NCc3ccc[n+]([O-])c3)cc(N3CCCC[C@H]3CCO)nc12 [Dinaciclib]
Observed result: 0.0209
//
Compound: CC(C)C[C@H](NC(=O)[C@H](Cc1ccccc1)NC(=O)c1cnccn1)B(O)O [Bortezomib]
Observed result: 0.192
//
Compound: CC(=O)Nc1cccc(-n2c(=O)n(C3CC3)c(=O)c3c(Nc4ccc(I)cc4F)n(C)c(=O)c(C)c32)c1 [Trametinib]
Observed result: 0.672
//
Compound: Cc1[nH]c(/C=C2\C(=O)Nc3ccc(F)cc32)c(C)c1C(=O)NCCN1CCCC1 [Toceranib]
Observed result: 0.756
//
Compound: Cn1ncc(Cl)c1-c1cc(C(=O)N[C@H](CN)Cc2cccc(F)c2)sc1Cl [Afuresertib]
Observed result: 0.758

---

- System: U266 (cancer type: MM)
- Protocol notes: normalized area under the dose-response curve (viability relative to DMSO control) (fraction); higher = less sensitive (more viable cells)
- Test conditions: exposure time not given
List of normalized area under the dose-response curve values.
Reported metric: normalized area under the dose-response curve

Compound string: CS(=O)(=O)c1ccc(C(=O)Nc2ccc(Cl)c(-c3ccccn3)c2)c(Cl)c1
Observed result: 0.896

Compound string: CC1(C)CCC(CN2CCN(c3ccc(C(=O)NS(=O)(=O)c4ccc(NCC5CCOCC5)c([N+](=O)[O-])c4)c(Oc4cnc5[nH]ccc5c4)c3)CC2)=C(c2ccc(Cl)cc2)C1
Observed result: 0.366

Compound string: COc1cc(Nc2ncc3c(n2)-c2ccc(Cl)cc2C(c2c(F)cccc2OC)=NC3)ccc1C(=O)O
Observed result: 0.859

Compound string: O=C(c1ccc(F)c(F)c1Nc1ccc(I)cc1F)N1CC(O)([C@@H]2CCCCN2)C1
Observed result: 0.767

Compound string: N#CC[C@H](C1CCCC1)n1cc(-c2ncnc3[nH]ccc23)cn1
Observed result: 0.833

Compound string: Cc1[nH]c2ccccc2c1CCNCc1ccc(/C=C/C(=O)NO)cc1
Observed result: 0.389

Compound string: CC1(COc2ccc3c(c2)ncn3-c2ccc3cccc(N4CCC(N)CC4)c3n2)COC1
Observed result: 0.426

Compound string: C[C@@H](Oc1cc(-c2cnn(C3CCNCC3)c2)cnc1N)c1c(Cl)ccc(F)c1Cl
Observed result: 0.335

Compound string: O=C(CCCCCCC(=O)Nc1ccccc1)NO
Observed result: 0.738

Compound string: CC(C)(C)c1cc(NC(=O)Nc2ccc(-c3cn4c(n3)sc3cc(OCCN5CCOCC5)ccc34)cc2)no1
Observed result: 0.867

Compound string: COc1cc2/c(=N/c3ccc(Br)cc3F)nc[nH]c2cc1OCC1CCN(C)CC1
Observed result: 0.746

Compound string: CN(C)C/C=C/C(=O)Nc1cc2c(Nc3ccc(F)c(Cl)c3)ncnc2cc1O[C@H]1CCOC1
Observed result: 0.801

Compound string: Nc1nc(Cl)nc2c1ncn2[C@@H]1O[C@H](CO)[C@@H](O)[C@@H]1F
Observed result: 0.595

Compound string: Nc1ncn([C@@H]2O[C@H](CO)[C@@H](O)[C@H]2O)c(=O)n1
Observed result: 0.679

Compound string: CO[C@H]1C[C@@H]2CC[C@@H](C)[C@@](O)(O2)C(=O)C(=O)N2CCCC[C@H]2C(=O)O[C@H]([C@H](C)C[C@@H]2CC[C@@H](OC(=O)C(C)(CO)CO)[C@H](OC)C2)CC(=O)[C@H](C)/C=C(\C)[C@@H](O)[C@@H](OC)C(=O)[C@H](C)C[C@H](C)/C=C/C=C/C=C/1C
Observed result: 0.752

Compound string: Cc1sc2c(c1C)C(c1ccc(Cl)cc1)=N[C@@H](CC(=O)Nc1ccc(O)cc1)c1nnc(C)n1-2
Observed result: 0.62

---

- System: OPM2 (cancer type: MM)
- Protocol notes: normalized area under the dose-response curve (viability relative to DMSO control) (fraction); higher = less sensitive (more viable cells)
- Test conditions: exposure time not given
Structures can show the parent of a compound that is named as a salt.
Respond with Fulfilled for normalized area under the dose-response curve values of 0.5 and above, Not fulfilled for values below.

Molecule: N[C@@H](Cc1ccc(N(CCCl)CCCl)cc1)C(=O)O [Melphalan hydrochloride]
Class: Fulfilled
--
Molecule: CC1(COc2ccc3c(c2)ncn3-c2ccc3cccc(N4CCC(N)CC4)c3n2)COC1
Class: Not fulfilled
--
Molecule: CCN(CC)CCNC(=O)c1c(C)[nH]c(/C=C2\C(=O)Nc3ccc(F)cc32)c1C
Class: Fulfilled
--
Molecule: COc1cc(Nc2ncc3c(n2)-c2ccc(Cl)cc2C(c2c(F)cccc2OC)=NC3)ccc1C(=O)O
Class: Fulfilled
--
Molecule: Nc1nc(Cl)nc2c1ncn2[C@@H]1O[C@H](CO)[C@@H](O)[C@@H]1F
Class: Fulfilled
--
Molecule: O=C(/C=C\n1cnc(-c2cc(C(F)(F)F)cc(C(F)(F)F)c2)n1)NNc1cnccn1 [Selinexor]
Class: Not fulfilled
--
Molecule: C[C@@H](Oc1cc(-c2cnn(C3CCNCC3)c2)cnc1N)c1c(Cl)ccc(F)c1Cl
Class: Not fulfilled
--
Molecule: Nc1cccc2c1CN(C1CCC(=O)NC1=O)C2=O (configuration not stated) [Lenalidomide]
Class: Fulfilled
--
Molecule: CNC(=O)c1cc(Oc2ccc(NC(=O)Nc3ccc(Cl)c(C(F)(F)F)c3)cc2)ccn1
Class: Fulfilled
--
Molecule: Cn1ncc(Cl)c1-c1cc(C(=O)N[C@H](CN)Cc2cccc(F)c2)sc1Cl
Class: Not fulfilled
--
Molecule: Nc1cc(C(F)(F)F)c(-c2cc(N3CCOCC3)nc(N3CCOCC3)n2)cn1
Class: Not fulfilled
--
Molecule: CO[C@H]1C[C@@H]2CC[C@@H](C)[C@@](O)(O2)C(=O)C(=O)N2CCCC[C@H]2C(=O)O[C@H]([C@H](C)C[C@@H]2CC[C@@H](OCCO)[C@H](OC)C2)CC(=O)[C@H](C)/C=C(\C)[C@@H](O)[C@@H](OC)C(=O)[C@H](C)C[C@H](C)/C=C/C=C/C=C/1C
Class: Fulfilled
--
Molecule: CC(=O)c1c(C)c2cnc(Nc3ccc(N4CCNCC4)cn3)nc2n(C2CCCC2)c1=O
Class: Fulfilled
--
Molecule: CC(C)C[C@H](NC(=O)[C@H](CCc1ccccc1)NC(=O)CN1CCOCC1)C(=O)N[C@@H](Cc1ccccc1)C(=O)N[C@@H](CC(C)C)C(=O)[C@@]1(C)CO1
Class: Not fulfilled
--
Molecule: CCCS(=O)(=O)Nc1ccc(F)c(C(=O)c2c[nH]c3ncc(-c4ccc(Cl)cc4)cc23)c1F
Class: Fulfilled
--
Molecule: CNC(=O)c1cc(Oc2ccc(NC(=O)Nc3ccc(Cl)c(C(F)(F)F)c3)c(F)c2)ccn1
Class: Fulfilled
--
Molecule: Cc1cc(Nc2ncc(Cl)c(Nc3ccccc3S(=O)(=O)C(C)C)n2)c(OC(C)C)cc1C1CCNCC1
Class: Not fulfilled

Just for reference, the supplement of paper PMC7214452 is where these values come from.
